B1: TRIM39 (parent)
chain: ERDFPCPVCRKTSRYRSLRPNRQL

Variants of: B1
assay explanation: protein stability index of a GFP-peptide fusion (GPS, HEK-293T) (PSI 1-6); higher = more stable;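 also: lentivirally expressed fusions sorted by FACS into six bins by GFP to DsRed ratio, PSI derived from sequencing read proportions per bin multiplied by bin number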
condition description: c terminus: a fixed tail appended
readout type: protein stability index
Give bare numbers.

The recorded protein stability index for `S13G` is 2.52

The recorded protein stability index for `V8T` is 3.06

// batch mode: one protein stability index value per listed entry
1. F4E
2. S17Y
3. D3R

Result:
2.02
1.44
1.99

// batch mode: one protein stability index value per listed entry
1. D3W
2. Q23L
3. Y15P
4. P7C
5. R19Q
6. R2L
7. R14E
8. R19M

Result:
2.15
1.87
2.29
1.94
1.91
1.63
3.71
1.29
